Literature compilation of pIC50 measurements on Tyrosine-protein kinase ABL1 (Homo sapiens, UniProt P00519).
pIC50: −log10 of the molar value.

Below, 2 compounds whose answers are already recorded.
COMPOUND	TEST VALUE
O=C(c1cc(O)ccc1F)c1c[nH]c2ncc(-c3ccccc3)cc12	≥ 5.00
COCCOCCOCCOCC(=O)NC(CC(C)C)C(=O)OCCN1CCN(c2cc(Nc3ncc(C(=O)Nc4c(C)cccc4Cl)s3)nc(C)n2)CC1 (stereo not shown)	9.37

Could you tell me pIC50 for each of these compounds? They are listed below.
1. Cc1ccccc1C(=O)c1c[nH]c2ncc(-c3cccc(N)c3)cc12
2. Cc1ccc(C(=O)Nc2cccc(C(F)(F)F)c2)cc1C#Cc1cn([C@H]2CC[C@H](O)CC2)c2ncnc(N)c12
3. Cc1cc(C(=O)c2c[nH]c3ncc(-c4cccc(C(N)=O)c4)cc23)n(C)n1
4. Cc1oc(C(C)(C)C)cc1NC(=O)Nc1ccc(Oc2ccnc(-c3cnn(C)c3)c2)cc1F

-- reply
≥ 5.00
≥ 8.30
≥ 5.00
> 7.00

* * *

Literature survey of IC50 (system: Tyrosine-protein kinase ABL1 (Homo sapiens, UniProt P00519)).

As a guide, the following entries are already answered.
COMPOUND	REPORTED METRIC	TEST VALUE
Cn1cc(-c2cc(Oc3ccc(NC(=O)Nc4cc(C(F)(F)F)c[nH]c4=O)c(F)c3)ccn2)cn1	IC50	< 100 nM
Cc1ccc(NC(=O)c2cc(C(C)(C)C)on2)cc1C#Cc1cnc2c(Nc3cnn(C)c3)nccn12	IC50	1.6 nM

For the 6 compounds below, give their IC50 values.
1. COc1cc(OC)cc(C(=O)c2c[nH]c3ncc(-c4cccc(NS(C)(=O)=O)c4)cc23)c1
2. Cc1ccc(C(=O)Nc2ccc(CN3CCN(C)CC3)c(C(F)(F)F)c2)cc1C#Cc1nnc2cccnn12
3. CSc1n[nH]c2nc(Nc3ccc(N4CCOCC4)cc3)nc(NCCCCN)c12
4. O=S(=O)(NCc1c[nH]c2ncccc12)c1ccsc1
5. Cn1cc(-c2cc(Oc3ccc(NC(=O)Nc4cnn(C(C)(C)C)c4)c(F)c3F)ccn2)cn1
6. Cc1ccc(C(=O)Nc2ccc(CN3CCN(C)CC3)c(C(F)(F)F)c2)cc1C#Cc1cn(C)c2ncnc(N)c12

-- reply
1. ≤ 10000 nM
2. < 20 nM
3. ≤ 50 nM
4. ≤ 10000 nM
5. < 100 nM
6. ≤ 5 nM

Would you be so kind as to report IC50 for each listed record?
1. Cn1cc(-c2cc(Oc3ccc(NC(=O)Nc4cc(C5CC5)nn4C)c(F)c3)ccn2)cn1
2. COCCn1cc(Nc2nccn3c(C#Cc4cc(NC(=O)c5cccc(C(F)(F)F)c5)ccc4C)cnc23)cn1
3. N#Cc1ccc(-n2cnc3cc(OCCOCCO)c(NC4CCCC(O)C4)nc32)nc1 (stereo not shown)
4. CS(=O)(=O)c1n[nH]c2nc(Nc3ccc(N4CCCC(O)C4)cc3)nc(NC3CC3)c12 (stereo not shown)
5. Cc1ccccc1C(=O)Nc1n[nH]c2c1CCn1cc(C(=O)N3CCC(N4CCCCC4)CC3)cc1-2
6. Cc1ccc(C(=O)Nc2n[nH]c3c2CCn2cc(C(=O)N4CCC(N5CCCCC5)CC4)cc2-3)c(C)c1
7. CC(=O)Nc1ccc(C(=O)Nc2sc(Nc3ccccc3)nc2C(N)=O)cc1

-- reply
< 1000 nM
2.55 nM
656 nM
≤ 10 nM
5340 nM
4310 nM
290 nM

The compound COCCOCCOCCOCCOCCOCCOCCNCc1ccc(C(=O)Nc2ccc(C)c(Nc3nccc(-c4cccnc4)n3)c2)cc1 , when measured on Tyrosine-protein kinase ABL1 (Homo sapiens, UniProt P00519), yielded IC50 of ≥ 3000 nM
